Biological target: KRAS G13C (Homo sapiens, UniProt P01116+P62937, G13C)
Sequence (P01116 1-169 isoform P01116-2 G13C): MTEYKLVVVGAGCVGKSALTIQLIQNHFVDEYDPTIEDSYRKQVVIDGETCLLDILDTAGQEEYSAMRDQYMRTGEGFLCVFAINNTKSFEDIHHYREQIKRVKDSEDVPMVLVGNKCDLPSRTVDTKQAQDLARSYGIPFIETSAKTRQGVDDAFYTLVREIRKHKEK
Sequence (P62937 whole entry): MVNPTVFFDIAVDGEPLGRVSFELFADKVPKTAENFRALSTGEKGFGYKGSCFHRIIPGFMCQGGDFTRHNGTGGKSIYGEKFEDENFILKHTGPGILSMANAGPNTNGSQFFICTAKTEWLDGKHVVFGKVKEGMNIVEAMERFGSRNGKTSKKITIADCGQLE
Assay: Disruption of BRAF RBD interaction with Ras (FRET / MOA assay, with Cyclophilin A)
Format: biochemical
Details: read-out: KRAS G13C FRET data, IC50
pIC50: −log10 of the molar value.
recorded.metric: pIC50

Examples from the recorded data:
{"compound": "CCn1c(-c2cccnc2[C@H](C)OC)c2c3cc(ccc31)-c1cc(O)cc(c1)C[C@H](NC(=O)[C@H](C(C)C)N(C)C(=O)[C@@H]1OCC[C@@H]1c1cccnc1)C(=O)N1CCC[C@H](N1)C(=O)OCC(C)(C)C2 (atropisomer, axis not shown)", "recorded.metric": "pIC50", "measured.result": "7.00 to 8.00"}
{"compound": "CCn1c(-c2cnccc2COC)c2c3cc(ccc31)-c1cc(O)cc(c1)C[C@H](NC(=O)[C@@H](OC(=O)N(C)C)C(C)C)C(=O)N1CCC[C@H](N1)C(=O)OCC(C)(C)C2", "recorded.metric": "pIC50", "measured.result": "5.00 to 6.00"}
{"compound": "CCn1c(-c2cccnc2[C@H](C)OC)c2c3cc(ccc31)-c1cc(O)cc(c1)C[C@H](NC(=O)[C@H](C(C)C)N(C)C(=O)[C@H]1CCN(C(=O)CNC)C1)C(=O)N1CCC[C@H](N1)C(=O)OCC(C)(C)C2 (atropisomer, axis not shown)", "recorded.metric": "pIC50", "measured.result": "6.00 to 7.00"}
{"compound": "CCn1c(-c2cc(C3CCN(C)CC3)cnc2[C@H](C)OC)c2c3cc(ccc31)-c1cc(O)cc(c1)C[C@H](NC(=O)[C@H](C(C)C)N(C)C(=O)[C@@H]1OCC[C@@H]1c1ccccc1)C(=O)N1CCC[C@H](N1)C(=O)OCC(C)(C)C2 (atropisomer, axis not shown)", "recorded.metric": "pIC50", "measured.result": "7.00 to 8.00"}
{"compound": "CCn1c(-c2cccnc2[C@H](C)OC)c2c3cc(ccc31)-c1cc(O)cc(c1)C[C@H](NC(=O)[C@H](C(C)C)N(C)C(=O)C1(O)CC1)C(=O)N1CCC[C@H](N1)C(=O)OCC(C)(C)C2 (atropisomer, axis not shown)", "recorded.metric": "pIC50", "measured.result": "7.00 to 8.00"}

Documented pIC50 of "CCn1c(-c2cnccc2COC)c2c3cc(ccc31)-c1cc(O)cc(c1)C[C@H](NC(=O)[C@H](C(C)C)N1CCCCC1=O)C(=O)N1CCC[C@H](N1)C(=O)OCC(C)(C)C2" : 5.00 to 6.00

Quick note, pIC50 for "CCn1c(-c2cccnc2[C@H](C)OC)c2c3cc(ccc31)-c1cccc(c1)C[C@H](NC(=O)[C@H](C(C)C)N(C)C(=O)[C@H]1CCN(C(=O)C(C)(C)N(C)C)C1)C(=O)N1CCC[C@H](N1)C(=O)OCC(C)(C)C2" landed at 5.00 to 6.00

Entry CCn1c(-c2cccnc2[C@H](C)OC)c2c3cc(ccc31)-c1cc(O)cc(c1)C[C@H](NC(=O)C1CCCC1C(F)F)C(=O)N1CCC[C@H](N1)C(=O)OCC(C)(C)C2 (some centres unmarked) ; pIC50 = 6.00 to 7.00

----------
Target: NRAS WT (Homo sapiens, UniProt P01111+P62937)
Sequence (P01111 whole entry): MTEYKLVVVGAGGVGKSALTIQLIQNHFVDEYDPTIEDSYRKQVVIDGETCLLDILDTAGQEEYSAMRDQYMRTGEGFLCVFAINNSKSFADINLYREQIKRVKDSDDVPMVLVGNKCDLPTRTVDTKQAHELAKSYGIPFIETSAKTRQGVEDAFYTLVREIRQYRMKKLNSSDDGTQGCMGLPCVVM
Sequence (P62937 whole entry): as the sequence (P62937 whole entry) above
Assay: Disruption of BRAF RBD interaction with Ras (FRET / MOA assay, with Cyclophilin A)
Type: biochemical
Conditions: NRAS WT; read-out: NRAS WT FRET data IC50
pIC50: −log10 of the molar value.
Documented pIC50 across a set of molecules

Some molecules with recorded pIC50:
{"molecule": "CCn1c(-c2cccnc2[C@H](C)OC)c2c3cc(ccc31)-c1csc(n1)C[C@H](NC(=O)[C@H](C(C)C)N(C)C(=O)N1CCN(C(=O)[C@H]3CCCN3C)CC1)C(=O)N1CCC[C@H](N1)C(=O)OCC(C)(C)C2 (atropisomer, axis not shown) [Example A595]", "pIC50": "6.00 to 7.00"}
{"molecule": "CCn1c(-c2cccnc2[C@H](C)OC)c2c3cc(ccc31)-c1csc(n1)C[C@H](NC(=O)[C@H](C(C)C)N(C)C(=O)N1CC[C@]13CCCN(C)C3)C(=O)N1CCC[C@H](N1)C(=O)OCC(C)(C)C2 [Example A442]", "pIC50": "5.00 to 6.00"}
{"molecule": "CCn1c(-c2cccnc2[C@H](C)OC)c2c3cc(ccc31)-c1cc(O)cc(c1)C[C@H](NC(=O)[C@H](C(C)C)N(C)C(=O)C1CN(C)C1)C(=O)N1CCC[C@H](N1)C(=O)OCC(C)(C)C2 (atropisomer, axis not shown) [Example A124]", "pIC50": "7.00 to 8.00"}

Sample CCn1c(-c2cccnc2[C@H](C)OC)c2c3cc(ccc31)-c1cc(O)cc(c1)C[C@H](NC(=O)[C@H](C(C)C)N(C)C(=O)C1CCc3ccccc3N1)C(=O)N1CCC[C@H](N1)C(=O)OCC(C)(C)C2 (some centres unmarked) [Example A226] ; pIC50 observed: 6.00 to 7.00

The recorded pIC50 for entry CCn1c(-c2cccnc2[C@H](C)OC)c2c3cc(ccc31)-c1csc(n1)C[C@H](NC(=O)[C@H](C(C)C)N(C)C(=O)N1CC[C@@H]1CN(C)C)C(=O)N1CCC[C@H](N1)C(=O)OCC(C)(C)C2 [Example A502] equals 6.00 to 7.00

The molecule identified as CCn1c(-c2cccnc2[C@H](C)OC)c2c3cc(ccc31)-c1csc(n1)C[C@H](NC(=O)[C@H](C(C)C)N(C)C(=O)N1CC3(CCCO3)C1)C(=O)N1CCC[C@H](N1)C(=O)OCC(C)(C)C2 (atropisomer, axis not shown) [Example A522] registered its pIC50 at 6.00 to 7.00

Lab note: measured pIC50 of CCn1c(-c2cccnc2[C@H](C)OC)c2c3cc(ccc31)-c1csc(n1)C[C@H](NC(=O)[C@H](C(C)C)N(C)C(=O)N1CCC[C@H]1CN(C)C)C(=O)N1CCC[C@H](N1)C(=O)OCC(C)(C)C2 [Example A519] was 6.00 to 7.00

Per the records, this molecule ( CCn1c(-c2cccnc2[C@H](C)OC)c2c3cc(ccc31)-c1csc(n1)C[C@H](NC(=O)[C@H](C(C)C)N(C)C(=O)N1CCC[C@H](CN(C)C)C1)C(=O)N1CCC[C@H](N1)C(=O)OCC(C)(C)C2 (atropisomer, axis not shown) [Example A573] ) has pIC50 equal to 7.00 to 8.00

Per the records, this molecule ( CCn1c(-c2cccnc2[C@H](C)OC)c2c3cc(ccc31)-c1csc(n1)C[C@H](NC(=O)[C@H](C(C)C)N(C)C(=O)N1CC[C@@H](O)C1)C(=O)N1CCC[C@H](N1)C(=O)OCC(C)(C)C2 (atropisomer, axis not shown) [Example A376] ) has pIC50 equal to 6.00 to 7.00

Each recorded value in this set is attributed to patent US20230233569A1.
